Would you kindly list Selectivity CC50/EC50 × 10^3 for each of these compounds?
# Test system: III-B strain of HIV-1
# TEST_METHOD_NOTES: microbe, parasite or virus in culture
# Type: cell-based

Please give measured Selectivity CC50/EC50 × 10^3 of the following entry: Cc1cn([C@H]2C=C[C@@H](COP(=O)(NC(C)C(=O)OC(C)(C)C)Oc3ccccc3)O2)c(=O)[nH]c1=O (stereo partly shown) [Compound 893]
>5.0 × 10^3

Please give measured Selectivity CC50/EC50 × 10^3 of the following entry: COC(=O)C(C)NP(=O)(OCC1C=CC(n2cc(C)c(=O)[nH]c2=O)O1)Oc1cccc(C(F)(F)F)c1 (stereo not shown) [Compound 526]
250 × 10^3

Please give measured Selectivity CC50/EC50 × 10^3 of the following entry: Cc1cn(C2C=CC(COP(=O)(NC(Cc3ccccc3)C(=O)OCc3ccccc3)Oc3ccccc3)O2)c(=O)[nH]c1=O (stereo not shown) [Compound 877]
267 × 10^3

Please give measured Selectivity CC50/EC50 × 10^3 of the following entry: COC(=O)C(C)NP(=O)(OC[C@@H]1C=C[C@H](n2cc(C)c(=O)[nH]c2=O)O1)Oc1c(F)c(F)c(F)c(F)c1F (stereo partly shown) [Compound 779]
1.25 × 10^3

Please give measured Selectivity CC50/EC50 × 10^3 of the following entry: Cc1cn(C2C=CC(COP(=O)(N[C@@H](C)C(=O)OC3CCCCC3)Oc3ccccc3)O2)c(=O)[nH]c1=O (stereo partly shown) [Compound 892]
312 × 10^3

Please give measured Selectivity CC50/EC50 × 10^3 of the following entry: COC(=O)C(C)NP(=O)(OC[C@@H]1C=C[C@H](n2cc(C)c(=O)[nH]c2=O)O1)Oc1cc(Cl)cc(Cl)c1 (stereo partly shown) [Compound 546]
100 × 10^3

Please give measured Selectivity CC50/EC50 × 10^3 of the following entry: CCc1ccc(OP(=O)(N[C@@H](C)C(=O)OC)OCC2C=CC(n3cc(C)c(=O)[nH]c3=O)O2)cc1 (stereo partly shown) [Compound 323]
15.6 × 10^3
